Tested on: L. major, antimony salts resistant, in promastigote form
protocol.description: Promastigote growth inhibition assay, strain resistant to antimony salts
Assay type: cell-based, Leishmania major
assay.conditions: 48 hours incubation
Catalogue of pIC50 readings, one per entry.
The read-out pIC50 is expressed as -log10 of concentration in moles per litre.

compound	assay.result
C[C@@H]1[C@H](O)[C@@H](C)/C=C/C=C/C=C/C=C/C=C/C=C/C=C/[C@H](O[C@@H]2O[C@H](C)[C@@H](O)[C@H](N)[C@@H]2O)C[C@@H]2O[C@](O)(C[C@@H](O)C[C@@H](O)[C@H](O)CC[C@@H](O)C[C@@H](O)CC(=O)O[C@H]1C)C[C@H](O)[C@H]2C(=O)O [amphotericin B, reference compound]	7.37

Consider now this further compound.
Exercise: Item c1ccc2c(c1)[I+]c1ccccc1-2 [DPI, [1,1′-biphenyl]-2,2′-diyliodonium] has what recorded pIC50?
Key: 7.82
